B1: Twister Ribozyme (parent)
chain: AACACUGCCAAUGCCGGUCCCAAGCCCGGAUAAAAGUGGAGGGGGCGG

Variants of: B1
protocol_details: self-cleavage, relative activity (ratio to wild type); higher = more cleavage; co-transcriptional
measurement_label: self-cleavage

monomer_sequence	self-cleavage
AACACUGCCAAUGCCGGUCCCAAGCCCAGAUAAAAGUGGAUGGGGCGG [G28A G41U]	0.397
AACACUGCCAUUGCCGGUCCCAAGCCCGGAUAAAAGUGGAGGGCGCGG [A11U G44C]	0.969
AACACUGCCAAUGCCGGGCCCAAGCCCAGAUAAAAGUGGAGGGGGCGG [U18G G28A]	0.0711
AACACUGCCAAUGCCGGUCCCAAGCCCGGAUAAAAGUGGAGAGGGCCG [G42A G47C]	0.241
AACACUGCCAAUGCCAGUCCCAAGCCCGGAUAAAAGUGGGGGGGGCGG [G16A A40G]	0.17

Here is another variant to look at.
Lookup result for AACACUGCCAAUGCCGGUCCCAUGCCCGGUUAAAAGUGGAGGGGGCGG [A23U A30U] ; measured self-cleavage: 0.501
